Origin of measurements: patent US10610520B2

- measured_on: His-hMAGL (recombinant polyhistidine tagged human MAGL protein) (Homo sapiens)
- Construct: made in house; host or cells: E. coli BL21(DE3)
- Sequence (Q99685 1-303): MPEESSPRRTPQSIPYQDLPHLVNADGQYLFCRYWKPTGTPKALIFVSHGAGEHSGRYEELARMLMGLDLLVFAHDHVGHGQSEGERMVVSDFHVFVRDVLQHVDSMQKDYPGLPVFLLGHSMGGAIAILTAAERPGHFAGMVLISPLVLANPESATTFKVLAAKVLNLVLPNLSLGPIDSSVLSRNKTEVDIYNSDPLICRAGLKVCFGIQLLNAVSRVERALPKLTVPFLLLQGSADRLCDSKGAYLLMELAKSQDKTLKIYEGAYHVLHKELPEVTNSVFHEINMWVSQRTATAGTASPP
- test_description: Measurement of MAGL inhibitory activity (arachidonic acid production from 2-arachidonylglycerol, RapidFire-mass spectrometry)
- Type: biochemical
- study_conditions: MAGL inhibitory rate, test compound 10 μM, 60 min preincubation, 2-arachidonylglycerol substrate
measurement_type: inhibition at 10 µM (%)
Give the value in % but do not write % after it.

# molecule, inhibition at 10 µM, %
data = [
    ("Cc1cc(Cl)ccc1CC1CCN(C(=O)N2CC3(CCC(=O)N3)C2)CC1 [Example 104]", 98),
    ("O=C1CCC2(CN(C(=O)c3ccc(-c4ccc(C(F)(F)F)c(F)c4)cc3)C2)N1 [Example 45]", 97),
    ("O=C1CCC2(CN(C(=O)c3sc4cc(Br)ccc4c3C3CC3)C2)N1 [Example 245]", 98),
]

// next item, inhibition at 10 µM requested
Give reported inhibition at 10 µM value for O=C1CCC2(CN(C(=O)c3ccc(-c4cccc(OCC5CC5)c4)cc3)C2)N1 [Example 171]
98

###

- measured_on: His-hMAGL (recombinant polyhistidine tagged human MAGL protein) (Homo sapiens)
- Construct: made in house; host or cells: E. coli BL21(DE3)
- test_description: Measurement of MAGL inhibitory activity (arachidonic acid production from 2-arachidonylglycerol, RapidFire-mass spectrometry)
- Type: biochemical
- study_conditions: MAGL inhibitory rate, test compound 10 μM, 60 min preincubation, 2-arachidonylglycerol substrate
Recorded inhibition at 10 µM for the following molecules
Give the value in % but do not write % after it.

// below: answered molecules
# molecule, unit_info, inhibition at 10 µM
measured = [
    ("O=C1NC2(CO1)CN(C(=O)[C@H]1C[C@@H](OCc3ccc(C(F)(F)F)c(Cl)c3)C1)C2 [Example 359]", "%", 99),
    ("O=C1CCC2(CN(C(=O)N3CCC(Cc4ccc(C(F)(F)F)cc4Cl)CC3)C2)N1 [Example 107]", "%", 98),
    ("O=C1NC2(CO1)CN(C(=O)c1sc3cc(Cl)ccc3c1Cl)C2 [Example 364]", "%", 100),
]

Give reported inhibition at 10 µM value for O=C1CCC2(CN(C(=O)c3sc4cc(OC(F)(F)F)ccc4c3Cl)C2)N1 [Example 176]
99

###

Recorded inhibition at 10 µM for the following molecules
- measured_on: His-hMAGL (recombinant polyhistidine tagged human MAGL protein) (Homo sapiens)
- Construct: made in house; host or cells: E. coli BL21(DE3)
- Sequence (Q99685 1-303): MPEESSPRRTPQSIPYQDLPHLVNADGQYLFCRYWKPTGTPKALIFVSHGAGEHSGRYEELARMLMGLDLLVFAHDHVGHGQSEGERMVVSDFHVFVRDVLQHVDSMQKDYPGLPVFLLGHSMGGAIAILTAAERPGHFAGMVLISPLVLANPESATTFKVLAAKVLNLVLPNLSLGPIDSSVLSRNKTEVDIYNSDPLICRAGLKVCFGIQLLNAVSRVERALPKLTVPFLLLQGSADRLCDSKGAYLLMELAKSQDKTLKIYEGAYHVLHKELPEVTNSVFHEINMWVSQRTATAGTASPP
- test_description: Measurement of MAGL inhibitory activity (arachidonic acid production from 2-arachidonylglycerol, RapidFire-mass spectrometry)
- Assay type: biochemical
- study_conditions: MAGL inhibitory rate, test compound 10 μM, 60 min preincubation, 2-arachidonylglycerol substrate
Answer as a quantity: numeral, then unit.

# molecule, inhibition at 10 µM
measured = [
    ("O=C1CCC2(CN(C(=O)c3ccc(-c4ccccc4)c(Cl)c3)C2)N1", "90%"),
    ("O=C1CCC2(CN(C(=O)c3sc4cc(-c5cccnc5C(F)(F)F)ccc4c3Cl)C2)N1", "100%"),
    ("O=C1CCC2(CN(C(=O)c3ccc(-c4cccc(C(F)(F)F)c4)c(OC(F)(F)F)c3)C2)N1", "99%"),
]

// next item, inhibition at 10 µM requested
Give reported inhibition at 10 µM value for Cc1cc(F)c(F)c2sc(C(=O)N3CCC4(COC(=O)N4)C3)c(Cl)c12 (stereo not shown)
99%

###

- measured_on: His-hMAGL (recombinant polyhistidine tagged human MAGL protein) (Homo sapiens, UniProt Q99685)
- Construct: made in house; host or cells: E. coli BL21(DE3)
- Sequence (Q99685 1-303): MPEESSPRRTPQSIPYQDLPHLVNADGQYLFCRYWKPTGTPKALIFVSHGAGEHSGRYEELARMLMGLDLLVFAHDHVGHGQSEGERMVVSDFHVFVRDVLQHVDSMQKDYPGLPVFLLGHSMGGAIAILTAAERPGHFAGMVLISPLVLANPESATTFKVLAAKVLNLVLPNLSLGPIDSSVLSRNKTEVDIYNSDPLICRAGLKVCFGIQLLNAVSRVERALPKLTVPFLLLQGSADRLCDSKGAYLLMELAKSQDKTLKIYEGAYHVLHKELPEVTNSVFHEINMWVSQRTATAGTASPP
- test_description: Measurement of MAGL inhibitory activity (arachidonic acid production from 2-arachidonylglycerol, RapidFire-mass spectrometry)
- Assay type: biochemical
- study_conditions: MAGL inhibitory rate, test compound 10 μM, 60 min preincubation, 2-arachidonylglycerol substrate
measurement_type: inhibition at 10 µM (%)
Give the value in % but do not write % after it.

// below: answered molecules
# molecule, unit_info, inhibition at 10 µM
measured = [
    ("O=C1CCC2(CN(C(=O)c3sc4cc(-c5c(F)cccc5Cl)ccc4c3Cl)C2)N1 [Example 221]", "%", 100),
    ("O=C1CCC2(CN(C(=O)c3sc4cc(-c5ccc(F)cc5)ccc4c3Cl)C2)N1 [Example 36]", "%", 99),
    ("O=C1CCC2(CCN(C(=O)N3CC(COc4ccc5c(c4)CCCC5)C3)C2)N1 (centres unmarked) [Example 320]", "%", 94),
    ("COc1ccc(-c2ccc3c(Cl)c(C(=O)N4CC5(CCC(=O)N5)C4)sc3c2)cc1 [Example 193]", "%", 100),
    ("O=C1NC2(CO1)CN(C(=O)c1sc3cc(OC(F)F)cc(C(F)(F)F)c3c1Cl)C2 [Example 292]", "%", 100),
    ("O=C1NC2(CO1)CN(C(=O)c1sc3cc(OC(F)(F)F)cc(Cl)c3c1Cl)C2 [Example 293]", "%", 101),
]

Give reported inhibition at 10 µM value for O=C1NC2(CO1)CN(C(=O)N1CCC(COc3ccc(F)cc3Cl)CC1)C2 [Example 240]
100

Give reported inhibition at 10 µM value for O=C1CCC2(CN(C(=O)c3sc4cc(-c5ccccc5Cl)ccc4c3Cl)C2)N1 [Example 192]
100

###

- measured_on: His-hMAGL (recombinant polyhistidine tagged human MAGL protein) (Homo sapiens, UniProt Q99685)
- Construct: made in house; host or cells: E. coli BL21(DE3)
- test_description: Measurement of MAGL inhibitory activity (arachidonic acid production from 2-arachidonylglycerol, RapidFire-mass spectrometry)
- Assay type: biochemical
- study_conditions: MAGL inhibitory rate, test compound 10 μM, 60 min preincubation, 2-arachidonylglycerol substrate
Recorded inhibition at 10 µM for the following compounds
Give the value in % but do not write % after it.

// below: answered compounds
# smiles_input, unit_info, observed_result
rows = [
    ("O=C1CCC2(CN(C(=O)c3ccc(-c4cccc(C(F)(F)F)c4)c(C(F)(F)F)c3)C2)N1", "%", 99),
    ("O=C1CCC2(CN(C(=O)N3CC(COc4ccc(Br)cc4F)C3)C2)N1", "%", 104),
    ("O=C1NC2(CO1)CN(C(=O)c1sc3c(C(F)(F)F)cccc3c1C(F)F)C2", "%", 101),
    ("O=C1CCC2(CN(C(=O)c3ccc(-c4ccc(C(F)(F)F)c(Cl)c4)cc3)C2)N1", "%", 100),
    ("O=C1NC2(CO1)CN(C(=O)c1sc3cc(OC(F)(F)F)cc(F)c3c1Cl)C2", "%", 100),
]

Give reported inhibition at 10 µM value for O=C1CCC2(CN(C(=O)N3CC(COc4ccc5c(c4)CCCC5)C3)C2)N1
100

Give reported inhibition at 10 µM value for O=C1CCC2(CN(C(=O)c3cc4ccc(Cl)cc4s3)C2)N1
83
